Numbers sourced from ChEMBL document CHEMBL3112571.

molecular target: Cannabinoid receptor 2 (Homo sapiens); test: Agonist activity at human CB2 receptor expressed in CHO-K1 cells assessed as forskolin-induced cAMP accumulation after 1 hr
Assignment: determine reported EC50 for the given compounds.
Answers are plain numbers, in nM.

Entry smiles | Units | Observed value
CCn1c(C(=O)NCc2ccccc2F)nc2c(-c3ccccc3)cccc21 | nM | 45

# batch: return EC50 for each of the 3 compounds below
1. O=C(NC12CC3CC(CC(C3)C1)C2)c1nc2c(-c3ccccc3)cccc2[nH]1
2. CCn1c(C(=O)NCc2cncnc2)nc2c(-c3ccccc3)cccc21
3. O=C(NCc1ccccc1F)c1nc2c(-c3ccccc3)cccc2[nH]1

Result ::
[1.9, 1100, 256]

# batch: return EC50 for each of the 5 compounds below
1. CCn1c(C(=O)NCc2cccc(Cl)c2)nc2c(-c3ccccc3)cccc21
2. CC(C)(C)CNC(=O)c1nc2c(-c3ccccc3)cccc2[nH]1
3. O=C(NC1(CO)CCCCC1)c1nc2c(-c3ccccc3)cccc2[nH]1
4. CCn1c(C(=O)NCC2(CO)CCCC2)nc2c(-c3ccccc3)cccc21
5. O=C(NCC1(CO)CCCCC1)c1nc2c(-c3ccccc3)cccc2[nH]1

Result ::
[40, 14.7, 236, 1260, 43]

# batch: return EC50 for each of the 2 compounds below
1. O=C(NCC1(CO)CCCCC1)c1nc2c(-c3ccccc3)cccc2n1CC(F)(F)F
2. CCn1c(C(=O)NCc2ccccc2Cl)nc2c(-c3ccccc3)cccc21

Result ::
1: 1970; 2: 9.9

###

Assignment: determine reported Ratio EC50 for the given compounds.
organism: Homo sapiens; experiment: Selectivity ratio of EC50 for human CB1 receptor to EC50 for human CB2 receptor

Sample answers from the record:
Entry smiles | Ratio EC50
CCn1c(C(=O)NCc2ccccc2Cl)nc2c(-c3ccccc3)cccc21 | 92
O=C(NC12CC3CC(CC(C3)C1)C2)c1nc2c(-c3ccccc3)cccc2[nH]1 | 65
CCn1c(C(=O)NCc2cccc(Cl)c2)nc2c(-c3ccccc3)cccc21 | > 425

// switching to the query compound
// Ratio EC50 value for CC(C)(C)CNC(=O)c1nc2c(-c3ccccc3)cccc2[nH]1 : > 1160

###

target: Cannabinoid receptor 2 (Homo sapiens, UniProt P34972); test: Agonist activity at human CB2 receptor expressed in CHO-K1 cells assessed as forskolin-induced cAMP accumulation after 1 hr
Sequence (P34972 whole entry): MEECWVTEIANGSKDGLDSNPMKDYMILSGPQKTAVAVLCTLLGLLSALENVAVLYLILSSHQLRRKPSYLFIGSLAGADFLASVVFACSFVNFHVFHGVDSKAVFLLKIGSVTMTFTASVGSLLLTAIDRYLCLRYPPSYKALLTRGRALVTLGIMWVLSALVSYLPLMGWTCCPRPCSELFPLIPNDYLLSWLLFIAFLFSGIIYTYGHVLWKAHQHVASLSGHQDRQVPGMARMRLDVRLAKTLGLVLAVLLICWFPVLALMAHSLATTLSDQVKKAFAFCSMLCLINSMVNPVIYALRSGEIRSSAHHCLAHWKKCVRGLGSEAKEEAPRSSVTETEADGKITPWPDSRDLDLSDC
Quantity kind: IC50 (nM)
Numbers only, in nM.

// IC50 value for O=C(NC12CC3CC(CC(C3)C1)C2)c1nc(C(O)c2cccnc2)c2ccccn12 (racemic) : 4.5

###

Assignment: determine reported Emax for the given molecules.
molecular target: Cannabinoid receptor 2 (Homo sapiens); assay: Agonist activity at human CB2 receptor expressed in CHO-K1 cells assessed as forskolin-induced cAMP accumulation after 1 hr relative to control; assay type: functional, cell-based
Answers are plain numbers, in %.

Molecule | Emax (%)
O=C(NC1(CO)CCCCC1)c1nc2c(-c3ccccc3)cccc2[nH]1 | 82

# batch: return Emax for each of the 5 molecules below
1. CCn1c(C(=O)NCC(C)(C)C)nc2c(-c3ccccc3)cccc21
2. CCn1c(C(=O)NCC2(CO)CCCC2)nc2c(-c3ccccc3)cccc21
3. CC(C)(C)CNC(=O)c1nc2c(-c3ccccc3)cccc2[nH]1
4. O=C(NCC(O)CO)c1nc2c(-c3ccccc3)cccc2[nH]1 (stereo not given)
5. O=C(NCC1(CO)CCCC1)c1nc2c(-c3ccccc3)cccc2[nH]1

Result ::
[67, 68, 95, 75, 93]

# batch: return Emax for each of the 4 molecules below
1. CCn1c(C(=O)NCc2ccccc2F)nc2c(-c3ccccc3)cccc21
2. CCn1c(C(=O)NCc2cncnc2)nc2c(-c3ccccc3)cccc21
3. O=C(NCc1ccccc1)c1nc2c(-c3ccccc3)cccc2[nH]1
4. O=C(NCC1(CO)CCCCC1)c1nc2c(-c3ccccc3)cccc2n1CC(F)(F)F

Result ::
[98, 89, 64, 45]
